Molecular target: Nuclear receptor subfamily 1 group I member 2 (Rattus norvegicus) (UniProt Q9R1A7)
Sequence (Q9R1A7 whole entry, looked up): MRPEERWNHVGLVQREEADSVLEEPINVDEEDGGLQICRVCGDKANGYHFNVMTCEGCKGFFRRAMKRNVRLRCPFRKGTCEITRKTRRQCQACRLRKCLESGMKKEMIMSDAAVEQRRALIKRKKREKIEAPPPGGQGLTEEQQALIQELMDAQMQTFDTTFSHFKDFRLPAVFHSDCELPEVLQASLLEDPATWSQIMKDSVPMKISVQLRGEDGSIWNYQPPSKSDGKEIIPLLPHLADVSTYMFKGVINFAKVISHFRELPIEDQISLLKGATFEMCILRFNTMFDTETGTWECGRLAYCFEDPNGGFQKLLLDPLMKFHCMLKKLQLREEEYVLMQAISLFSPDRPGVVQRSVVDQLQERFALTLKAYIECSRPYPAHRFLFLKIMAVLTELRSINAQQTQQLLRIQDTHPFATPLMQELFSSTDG
Assay: qHTS assay for small molecule activators of the rat pregnane X receptor (rPXR) signaling pathway (AID 651751); further: 0% is about no effect
Settings: rPXR reporter cells, luciferase (One-Glo), 24 h
// values below are reported max response

>  <Cpd Smiles>
CCCc1c(OCCCOc2ccc(OCC(=O)O)cc2)ccc(C(C)=O)c1O

>  <Units Label>
%

>  <max response>
-1.22

$$$$
>  <Cpd Smiles>
CC(=O)C(C)=O

>  <Units Label>
%

>  <max response>
-4.56

$$$$
>  <Cpd Smiles>
C/C(=C\c1ccc(C(=O)O)cc1)c1ccc2c(c1)C(C)(C)CCC2(C)C

>  <Units Label>
%

>  <max response>
1.8

$$$$
>  <Cpd Smiles>
CCCc1c(-c2ccc(O)cc2)nn(-c2ccc(O)cc2)c1-c1ccc(O)cc1

>  <Units Label>
%

>  <max response>
-3.52

$$$$
>  <Cpd Smiles>
CCCCCCCCCCCCCCSCC(=O)O

>  <Units Label>
%

>  <max response>
5.54

$$$$
>  <Cpd Smiles>
NC(=O)c1ccccc1

>  <Units Label>
%

>  <max response>
-1.26

$$$$

---

Molecular target: M-phase phosphoprotein 8 (Homo sapiens) (UniProt Q99549)
Sequence (Q99549 whole entry, looked up): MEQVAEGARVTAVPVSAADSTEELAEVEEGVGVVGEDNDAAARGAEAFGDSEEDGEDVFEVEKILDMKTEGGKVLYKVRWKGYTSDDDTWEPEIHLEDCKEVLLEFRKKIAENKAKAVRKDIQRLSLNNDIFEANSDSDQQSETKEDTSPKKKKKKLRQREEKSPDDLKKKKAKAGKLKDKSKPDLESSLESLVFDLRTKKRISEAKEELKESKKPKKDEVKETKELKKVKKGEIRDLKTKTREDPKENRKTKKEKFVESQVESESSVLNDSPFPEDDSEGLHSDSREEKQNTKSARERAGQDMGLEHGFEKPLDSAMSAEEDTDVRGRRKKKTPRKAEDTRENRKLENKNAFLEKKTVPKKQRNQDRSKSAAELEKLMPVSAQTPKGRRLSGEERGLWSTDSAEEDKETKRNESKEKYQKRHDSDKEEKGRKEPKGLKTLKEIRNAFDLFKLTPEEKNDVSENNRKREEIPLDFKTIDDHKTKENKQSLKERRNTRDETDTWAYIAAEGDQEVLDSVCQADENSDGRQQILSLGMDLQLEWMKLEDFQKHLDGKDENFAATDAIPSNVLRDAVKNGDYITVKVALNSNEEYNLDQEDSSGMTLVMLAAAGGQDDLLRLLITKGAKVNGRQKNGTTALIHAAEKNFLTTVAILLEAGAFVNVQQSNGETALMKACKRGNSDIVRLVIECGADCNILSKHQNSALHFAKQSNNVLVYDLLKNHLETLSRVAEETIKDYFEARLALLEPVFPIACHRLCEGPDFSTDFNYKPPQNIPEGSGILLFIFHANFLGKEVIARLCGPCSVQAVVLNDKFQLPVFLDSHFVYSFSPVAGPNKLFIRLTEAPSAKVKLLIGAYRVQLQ
Test: qHTS Validation Assay for Inhibitors for MPP8 Chromodomain Interactions with Methylated Histone Tails (AID 488949); further: nearly all actives have a fitted effect of over 55% in size
Conditions: AlphaScreen MPP8 binding to H3K9me3 peptide; series mostly up to 57.1 µM
Records with an inconclusive call do not appear. Activity calls are given as the source filed them. The call rests on the fitted dose curve; in most records, active means well fitted inhibition curve with a large enough effect; inconclusive means small, poorly fitted or top-dose-only effect; inactive means no such curve, though single readings can be large or run the other way.
Possible outcomes: active, inactive

>  <Compound>
Brc1c(Br)c(Br)c2[nH]cnc2c1Br

>  <Assigned Class>
inactive

$$$$
>  <Compound>
CCCCCCCCCCCCCCC[C@H](O)[C@H](N)CO

>  <Assigned Class>
inactive

$$$$
>  <Compound>
O=C(O)CCC(=O)N1CCCC1C(=O)O (stereo not given)

>  <Assigned Class>
inactive

$$$$
>  <Compound>
CN1C2CCC1CC(OC(c1ccccc1)c1ccccc1)C2 (stereo not given)

>  <Assigned Class>
inactive

$$$$
>  <Compound>
CCCc1c(OCCCOc2ccc(OCC(=O)O)cc2)ccc(C(C)=O)c1O

>  <Assigned Class>
inactive

$$$$
>  <Compound>
NC1(C(=O)O)CCCCC1

>  <Assigned Class>
inactive

$$$$
>  <Compound>
C/C(=C\c1ccc(C(=O)O)cc1)c1ccc2c(c1)C(C)(C)CCC2(C)C

>  <Assigned Class>
inactive

$$$$
>  <Compound>
Cc1ccccc1/C=C/C1=NCCN1

>  <Assigned Class>
inactive

$$$$
>  <Compound>
Cc1nc2c(OCc3ccccc3)cccn2c1CC#N

>  <Assigned Class>
inactive

$$$$
>  <Compound>
NC1(C(=O)O)CCc2cc(C(=O)O)ccc21 (stereo not given)

>  <Assigned Class>
inactive

$$$$
>  <Compound>
C#CCn1c(=O)c2c(ncn2C)n(C)c1=O

>  <Assigned Class>
inactive

$$$$
>  <Compound>
C=CCN1CCc2cc(O)c(O)cc2C(c2ccccc2)C1 (stereo not given)

>  <Assigned Class>
inactive

$$$$
>  <Compound>
CCCN(CCc1ccccc1)C1CCc2c(O)cccc2C1 (stereo not given)

>  <Assigned Class>
inactive

$$$$
>  <Compound>
COCc1nc2c([nH]1)c(=O)n(C)c(=O)n2CC(C)C

>  <Assigned Class>
inactive

$$$$
>  <Compound>
O=C(c1ccc2c(c1)OCCO2)N1CCCCC1

>  <Assigned Class>
inactive

$$$$
>  <Compound>
COc1ccc(CCn2nnnc2C2(c3ccc(C)cc3)CC2)cc1

>  <Assigned Class>
inactive

$$$$
>  <Compound>
NCCS(=O)O

>  <Assigned Class>
inactive

$$$$
>  <Compound>
N=C(N)c1ccc(OCCCCCOc2ccc(C(=N)N)cc2)cc1 (tested in a mixture with another compound)

>  <Assigned Class>
inactive

$$$$
>  <Compound>
CCCCCC[C@@H]([C@@H](C)O)n1cnc2c(N)ncnc21

>  <Assigned Class>
inactive

$$$$
>  <Compound>
CCCCCCCC/C=C\CCCCCCCC(=O)NCCc1ccc(O)c(O)c1

>  <Assigned Class>
inactive

$$$$
>  <Compound>
CC(C)[C@@H]1CC[C@@H](C)C[C@@H]1P(=O)(c1ccccc1)c1ccccc1

>  <Assigned Class>
inactive

$$$$
>  <Compound>
CC(=O)SC1CC2=CC(=O)CC[C@]2(C)C2CC[C@@]3(C)C(CC[C@@]34CCC(=O)O4)C12 (stereo not given in full)

>  <Assigned Class>
inactive

$$$$
>  <Compound>
OCC1NCC(O)C(O)C1O (stereo not given)

>  <Assigned Class>
inactive

$$$$
>  <Compound>
COc1cc(C(O)C(=O)O)ccc1O (stereo not given)

>  <Assigned Class>
inactive

$$$$
>  <Compound>
O=c1cc(-c2ccccc2F)[nH]c2cc3c(cc12)OCO3

>  <Assigned Class>
inactive

$$$$
>  <Compound>
Cc1cccc(C(=O)NCN2CCN(c3ccccc3C#N)CC2)c1

>  <Assigned Class>
inactive

$$$$
>  <Compound>
CC(C)C[C@H](NC(=O)C1OC1C(=O)O)C(=O)NCCCCN=C(N)N (stereo not given in full)

>  <Assigned Class>
inactive

$$$$
>  <Compound>
O=C(O)c1ccccc1Nc1ccccc1

>  <Assigned Class>
inactive

$$$$
>  <Compound>
N[C@@H](CCC(=O)N[C@H](CSN=O)C(=O)NCC(=O)O)C(=O)O

>  <Assigned Class>
inactive

$$$$
>  <Compound>
COC(=O)C1=C(C)NC(C)=C([N+](=O)[O-])C1c1ccccc1C(F)(F)F (stereo not given)

>  <Assigned Class>
inactive

$$$$
>  <Compound>
N[C@H](C(=O)O)[C@H](O)C(=O)O

>  <Assigned Class>
inactive

$$$$
>  <Compound>
Cc1nc(N=Nc2ccc(C(=O)O)cc2)c(COP(=O)(O)O)c(C=O)c1O

>  <Assigned Class>
inactive

$$$$
>  <Compound>
O=C(N[C@@H](Cc1ccccc1)C(=O)CCl)OCc1ccccc1

>  <Assigned Class>
inactive

$$$$
>  <Compound>
CCCCCCCCCCC/C=C\C(C)(C)/C=C\CCCC(=O)O

>  <Assigned Class>
inactive

$$$$
>  <Compound>
CC(=O)NCCc1c[nH]c2ccc(O)cc12

>  <Assigned Class>
inactive

$$$$
>  <Compound>
CC(C)(CO)Cc1cc(C(C)(C)C)c(O)c(C(C)(C)C)c1

>  <Assigned Class>
inactive

$$$$
>  <Compound>
NCCCCN=C(N)N

>  <Assigned Class>
inactive

$$$$
>  <Compound>
CC1CCN=C(N)S1 (stereo not given)

>  <Assigned Class>
inactive

$$$$
>  <Compound>
CC[n+]1c(/C=C/C=C2/N(C)c3ccccc3C2(C)C)sc2ccccc21

>  <Assigned Class>
active

$$$$
>  <Compound>
Cn1c(=O)c2c(nc(/C=C/c3cccc(Cl)c3)n2C)n(C)c1=O

>  <Assigned Class>
inactive

$$$$
>  <Compound>
CC(N)=O

>  <Assigned Class>
inactive

$$$$
>  <Compound>
CNCCNS(=O)(=O)c1cccc2cnccc12

>  <Assigned Class>
inactive

$$$$
>  <Compound>
CNC(=O)c1cc2c(cn1)[nH]c1ccccc12

>  <Assigned Class>
inactive

$$$$
>  <Compound>
NCC(O)C1CCCCCCC1 (stereo not given)

>  <Assigned Class>
inactive

$$$$
>  <Compound>
CCCCCCN(CCCCCC)C(=O)Cc1c(-c2ccc(F)cc2)[nH]c2ccccc12

>  <Assigned Class>
inactive

$$$$
>  <Compound>
C=CCn1c(=O)c2c(nc(-c3ccc(S(=O)(=O)O)cc3)n2C)n(C)c1=O

>  <Assigned Class>
inactive

$$$$
>  <Compound>
NC(C(=O)N[C@@H]1C(=O)N2C(C(=O)O)=C(Cl)CS[C@H]12)c1ccccc1 (stereo not given in full)

>  <Assigned Class>
inactive

$$$$
>  <Compound>
C#CC(N)CCC(=O)O (stereo not given)

>  <Assigned Class>
inactive

$$$$
>  <Compound>
CN1CCCC1CCOC(C)(c1ccccc1)c1ccc(Cl)cc1 (stereo not given)

>  <Assigned Class>
inactive

$$$$
>  <Compound>
COc1cc(/C=C(\C#N)C(=O)Nc2nnc(C(F)(F)F)s2)ccc1OCc1ccc(C(F)(F)F)cc1C(F)(F)F

>  <Assigned Class>
inactive

$$$$

---

Target: Thioredoxin reductase 1, cytoplasmic (Rattus norvegicus)
Test: qHTS Assay for Substrates of Mammalian Selenoprotein Thioredoxin Reductase 1 (TrxR1) (AID 488772);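 further: NADPH fluorescence in the first read after selenite addition and not the 8 min delta; 0% is about no effect; a drop in NADPH fluorescence below the no-compound background marks a TrxR1 substrate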
Conditions: purified TrxR1, NADPH consumption substrate assay; series mostly up to 57.1 µM
Records with an inconclusive call do not appear. Calls of active or inactive are those of the source. Calls come from the whole dose curve; as a rule, active = well fitted curve in the direction sought with a large enough effect; inconclusive = small, poorly fitted or top-dose-only effect, or another doubt; inactive = no such curve, though single readings can be large or run the other way.

>  <Compound>
Cc1cccc(C2CN(C)CCc3c2cc(O)c(O)c3Cl)c1 (stereo not given)

>  <outcome>
inactive

$$$$
>  <Compound>
Nc1ncnc2c1ncn2C1CCCO1 (stereo not given)

>  <outcome>
inactive

$$$$
>  <Compound>
NC(Cc1cccc(-c2ccccc2CP(=O)(O)O)c1)C(=O)O (stereo not given)

>  <outcome>
inactive

$$$$
>  <Compound>
CC(O)C(O)[C@H]1CNc2nc(N)[nH]c(=O)c2N1 (stereo not given in full)

>  <outcome>
inactive

$$$$
>  <Compound>
O=C(O)/C=C/c1ccc(O)c(O)c1

>  <outcome>
inactive

$$$$
